All values here come from paper PMC11542851.

study target: T1, SARS-CoV-2 Wuhan-Hu-1 recombinant spike protein (trimer) (SARS-CoV-2 Wuhan-Hu-1, UniProt P0DTC2)
T1 construct: source: bought: Sino Biologics
protocol text: ELISA
condition context: both partners purified
measurement name: binding result

{"binder": "C68.239 (antibody, V domains shown) VH: EVQLLESGGGLVQPGGSLRLSCAASGFTFSSYAMSWVRQAPGKGLEWVSAISGGGDNTYYADSVKGRFTISRDNSKNTLYLQMNSLRAEDTAVYFCAKNPITVVPAAWDRGYFDLWGRGTLVTVSS VL: SYELTQPPSVSVAPRKTARITCGGNNIGSYSVHWYQQRPGQAPVLVVHDDSDRPSGIPERFSGSNSGNTATLTISRVEAGDEADYYCQVWDSSSDHRGVFGGGTKLTVL", "observed": "binds"}
{"binder": "C68.121 (antibody, V domains shown) VH: EVQLVESGGGLVKPGGSLRLSCAASGFTFSDYYMTWIRQAPGKGLEWVSKITNSNSYTHYADSVKGRFTISRDNAKNSLFLHMNSLRAEDTAVYYCARAIWIGYPDDYYMDVWGKGTTVTVSS VL: SYELTQPPSVSVSPGQTARITCSGDTLPNQYVYWYQQKPGQAPVLLIYKDTERPSGIPERVSGSTSGTTVTLTISGVQAEDEADYYCQSADSSGTSFGGGTKLTVL", "observed": "binds"}
{"binder": "C68.83 (antibody, V domains shown) VH: EVQLVESGGGVVQPGRSLRLSCAASGFIFSSYGMHWVRQAPGKGLEWVAVIWYDGSNKYYADSVKGRFTISRDNSKNTLYLQMNSLRAEDTAVYYCARDDPEVGCSGGSCYYYYDMDVWGQGTTVTVSS VL: SYELTQPPSVSVSPGQTARITCSGDALPKQHAHWYQQKPGQAPVLVIYKDIERPSGIPERFSGSSSGTTVTLTISGVQAEDEADYYCQSADSSVTYVVFGGGTKLTVL", "observed": "binds"}
